# assayed-target: Voltage-dependent T-type calcium channel subunit alpha-1G (Homo sapiens, UniProt O43497)
# Sequence (O43497 whole entry): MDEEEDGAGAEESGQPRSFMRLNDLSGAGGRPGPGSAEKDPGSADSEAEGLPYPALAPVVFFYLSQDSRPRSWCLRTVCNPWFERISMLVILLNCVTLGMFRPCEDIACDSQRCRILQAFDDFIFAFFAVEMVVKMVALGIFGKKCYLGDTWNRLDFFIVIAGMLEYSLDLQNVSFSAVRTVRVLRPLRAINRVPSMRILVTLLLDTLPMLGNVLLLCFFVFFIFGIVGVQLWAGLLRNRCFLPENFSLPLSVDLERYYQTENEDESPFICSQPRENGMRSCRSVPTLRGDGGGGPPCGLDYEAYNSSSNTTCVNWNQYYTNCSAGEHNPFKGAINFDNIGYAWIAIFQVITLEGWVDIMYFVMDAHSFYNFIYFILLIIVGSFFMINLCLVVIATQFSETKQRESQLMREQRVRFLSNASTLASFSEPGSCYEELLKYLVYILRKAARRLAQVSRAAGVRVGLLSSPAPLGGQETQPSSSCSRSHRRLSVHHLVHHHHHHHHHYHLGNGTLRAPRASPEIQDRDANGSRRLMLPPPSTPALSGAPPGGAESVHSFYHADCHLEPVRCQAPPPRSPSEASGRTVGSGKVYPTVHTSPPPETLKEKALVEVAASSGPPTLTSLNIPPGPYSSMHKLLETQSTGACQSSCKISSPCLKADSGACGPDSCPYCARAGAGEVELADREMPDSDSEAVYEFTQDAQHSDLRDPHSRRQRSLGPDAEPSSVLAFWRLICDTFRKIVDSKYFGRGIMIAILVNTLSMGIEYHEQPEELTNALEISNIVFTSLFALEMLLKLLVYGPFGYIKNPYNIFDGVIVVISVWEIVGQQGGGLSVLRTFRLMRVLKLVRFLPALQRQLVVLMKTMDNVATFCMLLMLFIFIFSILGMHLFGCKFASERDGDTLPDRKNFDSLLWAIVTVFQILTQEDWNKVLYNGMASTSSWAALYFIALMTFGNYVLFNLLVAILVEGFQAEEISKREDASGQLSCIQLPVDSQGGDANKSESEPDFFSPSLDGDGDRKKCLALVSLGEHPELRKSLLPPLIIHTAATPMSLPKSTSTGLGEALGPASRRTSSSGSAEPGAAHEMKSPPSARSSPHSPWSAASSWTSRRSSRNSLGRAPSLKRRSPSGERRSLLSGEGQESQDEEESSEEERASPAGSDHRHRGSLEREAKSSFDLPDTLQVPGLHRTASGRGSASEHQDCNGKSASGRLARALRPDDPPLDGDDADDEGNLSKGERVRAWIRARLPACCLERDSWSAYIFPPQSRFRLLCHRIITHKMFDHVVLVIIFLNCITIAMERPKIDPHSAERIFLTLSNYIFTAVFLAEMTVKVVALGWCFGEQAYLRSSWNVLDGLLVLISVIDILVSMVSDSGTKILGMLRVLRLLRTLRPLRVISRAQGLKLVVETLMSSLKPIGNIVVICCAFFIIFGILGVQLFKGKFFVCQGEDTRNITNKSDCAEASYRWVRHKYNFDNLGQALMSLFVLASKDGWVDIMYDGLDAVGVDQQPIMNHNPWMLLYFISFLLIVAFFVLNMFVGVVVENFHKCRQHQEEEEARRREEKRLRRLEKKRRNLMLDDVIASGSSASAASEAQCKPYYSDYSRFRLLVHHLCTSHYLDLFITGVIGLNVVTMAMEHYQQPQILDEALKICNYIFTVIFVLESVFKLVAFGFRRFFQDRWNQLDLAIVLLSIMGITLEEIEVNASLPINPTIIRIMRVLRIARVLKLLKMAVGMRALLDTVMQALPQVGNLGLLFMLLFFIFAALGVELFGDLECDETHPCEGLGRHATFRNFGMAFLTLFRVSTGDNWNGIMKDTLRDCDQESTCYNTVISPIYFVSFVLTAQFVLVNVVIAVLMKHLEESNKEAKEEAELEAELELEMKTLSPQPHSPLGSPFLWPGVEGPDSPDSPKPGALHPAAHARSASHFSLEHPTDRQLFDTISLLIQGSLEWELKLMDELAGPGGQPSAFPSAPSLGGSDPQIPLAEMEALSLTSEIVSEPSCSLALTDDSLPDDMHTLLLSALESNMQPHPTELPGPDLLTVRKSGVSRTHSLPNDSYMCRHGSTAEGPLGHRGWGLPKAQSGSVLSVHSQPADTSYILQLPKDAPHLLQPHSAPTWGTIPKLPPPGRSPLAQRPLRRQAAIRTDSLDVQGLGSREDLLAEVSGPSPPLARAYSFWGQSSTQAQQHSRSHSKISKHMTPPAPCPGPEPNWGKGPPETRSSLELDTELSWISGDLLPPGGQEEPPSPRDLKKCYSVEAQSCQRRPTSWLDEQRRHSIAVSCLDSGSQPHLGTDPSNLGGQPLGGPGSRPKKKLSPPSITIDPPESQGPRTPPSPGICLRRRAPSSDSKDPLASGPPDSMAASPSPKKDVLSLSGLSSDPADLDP
# assay-protocol: Percent inhibition of T-type [Ca2+] channel (alpha1G) expressed in HEK293 cells at 10 uM
# Type: cell-based
value-type: inhibition (%)
# number only, unit % dropped from output

[in] GET /values?readout=inhibition&item= NCCCCCNC1=Nc2ccccc2C(CC(=O)NCc2ccccc2)N1c1ccc(-c2ccccc2)cc1 (stereo not drawn)
[out] 83.8

[in] GET /values?readout=inhibition&item= NCCCCCN1C(Nc2ccc(-c3ccccc3)cc2)=Nc2ccccc2C1CC(=O)NCc1ccccc1 (stereo not drawn)
[out] 91.8

[in] GET /values?readout=inhibition&item= COC(=O)CC1c2ccccc2N=C(NCCCCCNC(=O)OC(C)(C)C)N1c1ccc(-c2ccccc2)cc1 (stereo not drawn)
[out] 86.5

[in] GET /values?readout=inhibition&item= COC(=O)CC1c2ccccc2N=C(NCCCCCN)N1c1ccc(-c2ccccc2)cc1 (stereo not drawn)
[out] 82.5

[in] GET /values?readout=inhibition&item= COC(=O)CC1c2ccccc2N=C(Nc2ccc(-c3ccccc3)cc2)N1CCCCCN (stereo not drawn)
[out] 84.1

[in] GET /values?readout=inhibition&item= COC(=O)CC1c2ccccc2N=C(Nc2ccc(-c3ccccc3)cc2)N1CCCCCNC(=O)OC(C)(C)C (stereo not drawn)
[out] 88.5

[in] GET /values?readout=inhibition&item= CC(C)(C)OC(=O)NCCCCCNC1=Nc2ccccc2C(CC(=O)NCc2ccccc2)N1c1ccc(-c2ccccc2)cc1 (stereo not drawn)
[out] 88.3

[in] GET /values?readout=inhibition&item= CC(C)(C)OC(=O)NCCCCCN1C(Nc2ccc(-c3ccccc3)cc2)=Nc2ccccc2C1CC(=O)NCc1ccccc1 (stereo not drawn)
[out] 88.5

Source of measurements: ChEMBL document CHEMBL1140360
